targetEntity: Serine/threonine-protein kinase TAO3 (Homo sapiens)
Sequence (whole entry): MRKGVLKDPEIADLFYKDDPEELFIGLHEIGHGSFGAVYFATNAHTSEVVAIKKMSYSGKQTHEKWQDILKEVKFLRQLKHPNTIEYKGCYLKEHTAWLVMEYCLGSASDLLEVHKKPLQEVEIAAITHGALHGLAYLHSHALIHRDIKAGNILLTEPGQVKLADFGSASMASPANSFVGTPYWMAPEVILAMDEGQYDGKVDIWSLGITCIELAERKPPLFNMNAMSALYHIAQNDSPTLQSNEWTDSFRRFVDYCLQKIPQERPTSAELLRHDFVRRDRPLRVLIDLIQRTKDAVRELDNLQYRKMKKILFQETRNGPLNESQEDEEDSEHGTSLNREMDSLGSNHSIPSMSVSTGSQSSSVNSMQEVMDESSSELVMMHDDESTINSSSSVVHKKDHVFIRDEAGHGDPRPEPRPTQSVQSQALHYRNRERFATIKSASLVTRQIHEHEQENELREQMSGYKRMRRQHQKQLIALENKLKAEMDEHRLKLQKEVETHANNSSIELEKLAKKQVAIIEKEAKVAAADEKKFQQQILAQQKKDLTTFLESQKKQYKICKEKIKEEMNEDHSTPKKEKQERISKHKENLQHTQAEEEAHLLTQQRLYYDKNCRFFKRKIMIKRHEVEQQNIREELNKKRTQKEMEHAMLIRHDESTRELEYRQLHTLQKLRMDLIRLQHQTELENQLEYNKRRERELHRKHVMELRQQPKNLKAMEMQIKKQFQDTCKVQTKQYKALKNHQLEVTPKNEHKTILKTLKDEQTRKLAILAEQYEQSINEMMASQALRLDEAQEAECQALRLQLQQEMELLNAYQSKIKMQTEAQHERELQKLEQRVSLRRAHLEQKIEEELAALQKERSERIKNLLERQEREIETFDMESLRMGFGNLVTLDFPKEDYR
conditionDescription: at 1 µM
This section presents molecules with their documented residual activity values.
measure: residual activity

* c1ccc(-c2cnc(Nc3ccc(OCCN4CCCC4)cc3)s2)cc1 | 82%
* Nc1ncnc2[nH]nc(Nc3ccc(F)cc3)c12 | 101%
* Nc1ncnc2c1cnn2-c1ccccc1 | 100%
* O=C1Nc2ccccc2/C1=C\c1c(Cl)[nH]c2ccccc12 | 85%
